Assay: S. cerevisiae growth inhibition in restrictive medium, OD615, pilot screen, restrictive growth control, yeast lifespan reduction project (AID 706);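 further: modified DeaD lifespan yeast strain shifted to restrictive glucose medium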
Conditions: OD615, 48 h, at 10 µM, stronger effect = higher value
A collection of compounds and their measured growth inhibition
metric name: growth inhibition (%)

compound	metric name	reported
COc1cccc(-n2c(=O)[nH]cc(C(=O)Nc3ccc4c(c3)OCCO4)c2=O)c1	growth inhibition	-1.22
COc1ccc(C2CC(c3cccc(OC)c3)n3nc(N)nc3N2)cc1 (stereo unspecified)	growth inhibition	9.84
COc1cc(C(=O)N2c3ccccc3CC2C)cc(OC)c1OC (stereo unspecified)	growth inhibition	-16.6
Cc1cccc(OCc2nc(C#N)c(NCCN(C)C)o2)c1	growth inhibition	1.57
O=C(Nn1c(=S)[nH]c2ccccc2c1=O)c1ccncc1	growth inhibition	-5.44
Cn1c(Cn2c(=O)sc3ccccc32)nnc1SCc1ccccc1	growth inhibition	-6.89
Cc1cc(C)cc(N(CC(=O)NCC2CCCO2)S(=O)(=O)c2c(C)noc2C)c1 (stereo unspecified)	growth inhibition	-8.86
CC(C(=O)N1CC2(C)CC1CC(C)(C)C2)N1C(=O)c2ccccc2C1=O (stereo unspecified)	growth inhibition	-0.265
Cc1ccc(Cl)cc1N1CCN(C(=O)C2CCC(=O)N2C(C)C)CC1 (stereo unspecified)	growth inhibition	-5.95
CC1(C)C(c2ccccc2)=NC(c2ccccc2)N1O (stereo unspecified)	growth inhibition	-4.8
CCOCCCNC(=O)C(NC(=O)c1ccccn1)c1ccc(C)cc1 (stereo unspecified)	growth inhibition	1.57
